Measured values drawn from patent US20170304444A1 for this set.

# tested.on: T1, glucocorticoid-induced tumor necrosis factor receptor (GITR) (human, UniProt Q9Y5U5 26-241)
# T1 chain: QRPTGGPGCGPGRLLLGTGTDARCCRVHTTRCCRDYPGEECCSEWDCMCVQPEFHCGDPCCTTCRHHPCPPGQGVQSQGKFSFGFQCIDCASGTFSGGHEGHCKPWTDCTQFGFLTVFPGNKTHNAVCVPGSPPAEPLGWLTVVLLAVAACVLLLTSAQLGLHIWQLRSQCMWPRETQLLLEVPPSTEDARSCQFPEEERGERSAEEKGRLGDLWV
# experiment: flow cytometry, GITR-expressing 293T cells
recorded.metric: pEC50
Please treat pEC50 as minus the base-10 logarithm of the molar concentration.

I have this binder here, mAb #11-126 (antibody, V domains shown) VH: EVQLVESGAEVKKPGASVKVSCKASGYTFTGYYMHWVRQAPGQGLEWLGWVNPHSGGTNYAQKFQGRVTMTRDTSISTAYMELSRLRSDDTAVYYCARETDISANYHFDYWGQGTLVTVSS VL: QSALTQPASVSGSPGQSITISCTGTSSDVGSYNAVSWYQHHPGKAPKLMIYEVSKRPSGVSNRFSGSKSGNTASLTISGLRAEDEADYYCATWDDSLKGPVFGGGTKLTVLG , and I need its recorded pEC50.
7.89

Then mAb #12-46 (antibody, V domains shown) VH: EVQLVQSGAEVKKPGASVKVSCKASGYTFTGYYMHWVRQAPGQGLEWMGWINPKTGDTNYAQKFQGRVALSRDTSFNTAYMDLSSLRSDDTAVYYCAREGLSTSSPLDYWGQGTLVTVSS VL: QPGLTQPPSVSVAPGQSAKITCGENELATNIVHWYQQKPGQAPVLVIYHDNDRPSGIPERFSGSNAGNTATLTISRVEAGDEADFYCQLWDSASDQVVFGGGTTLTVLG ?
7.14

Lookup mAb #17-60 (antibody, V domains shown) VH: EVQLVESGAEVKKPGASVKVSCKTSGYTFTDHYIHWVRQAPGQGLEWMGWINPSSGGTEYAQKFQGRVTMTRDTPISTAYMDLSGLRSDDTAVYYCARETIGGWNALDVWGQGTLVTVSS VL: QPVLTQPPSASGTPGQRVTISCSGSSSNIGINTVNWYQQLPRTPPKLLIYTNNQRPSGVPDRFSGSKSDTSASLAISGLQSEDEADYYCAAWDDTLNGPLFGGGTKVTVLG
7.82

Moving on to the next binder: mAb #14-182 (antibody, V domains shown) VH: QVQLVQSGAEVKQPGSSVKVSCKASGYTFTGYYMHWVRQAPGEGLEWLGWINPHSGGTNYAQKFQGRVTITADKSTSTAYMELSSLRSEDTAVYYCAREIVVVTAPAAAAMDVWGQGTLVTVSS VL: QSVLTQPPSASGSPGQSVTISCTGSSSDVAIYDRVSWYQQPPGTAPKLILYDVHDRPSGVPDRFSGSKSGNTASLTISGLQAEDEADYYCSSYTTSGTFVFGSGTKVTVLG
7.69

Also mAb #10-116 (antibody, V domains shown) VH: EVQLVQSGADVKKPGASVKVSCKASGYTFTGYYIHWVRQAPGQGLEWMGWINPNSGGTNYAQKFQGRVTMTRDTSISTAYMELSRLRSDDTAVYFCVREVKDYYYYMDVWGRGTTVTVSS VL: NFMLTQPHSVSESPGKTVTISCTRSSGSIASNSVQWYLQRPGSAPTTLIFDNKQRPSGVPDRFSGSIDSSSNSASLSISGLTTEDEADYFCQSYDDSEQVVFGGGTKLTVLS , if possible.
7.55
